Recorded TGI values for a group of molecules are listed next.
# Tested on: MOLT-4 leukemia
# Assay notes: NCI tumour cell line growth inhibition, 48 h
Endpoint: TGI

>>> df
                                   molecule  meas_value
0       CC(C)Cc1c(C#N)c(C#N)c(N)n1Cc1ccccc1    > 100 µM
1  COP(=O)(CC(=O)C1OC(OCc2ccccc2)C(OCc2ccccc2)C(OCc2ccccc2)C1OCc1ccccc1)OC (stereo not drawn)    > 100 µM
2  COC(=O)/C=C\S/C(=C(/c1ccccc1)n1ccc(C(=O)OC)n1)c1ccccc1    > 100 µM

---

# Test system: TK-10 renal
# Assay notes: NCI tumour cell line growth inhibition, 48 h
Recorded TGI values for a group of compounds are listed next.
Endpoint: TGI

>>> print(df.to_string())
                                    compound  endpoint  meas_value
 0                  CNc1ccc2c(c1)Cc1ccccc1-2       TGI     93.8 µM
 1  COc1cc(/C=C/C(=N\NC(=O)c2ccccc2)c2sc(Nc3ccc(Cl)c(Cl)c3)nc2C)ccc1O       TGI    > 100 µM
 2               NNC(=O)c1cccc2c1Oc1ccccc1S2       TGI    > 100 µM
 3  COC(=O)c1cc2c3c(cc(NCCN)c2[nH]1)N(C(=O)c1cc2cc(OC)c(OC)c(OC)c2[nH]1)CC3CCl (configuration not stated)       TGI     2.95 µM
 4  O=c1c2cc3c(=O)n(CCc4ccccc4CO)c(=O)c3cc2c(=O)n1CCc1ccccc1CO       TGI    > 100 µM
 5  Clc1ccc(CNc2nc3ccccc3nc2-c2cccs2)c(Cl)c1       TGI    > 100 µM
 6  c1ccc([P+](Cc2csnn2)(c2ccccc2)c2ccccc2)cc1       TGI    > 100 µM
 7  CCOC1NC(=O)c2ccccc21 (configuration not stated)       TGI    > 100 µM
 8                    CC1=NC(C)(C)N(O)C1(C)C       TGI    > 100 µM
 9  CN1CCN(Cc2ccc(NC(=O)c3ccc(C(C)(C)C)c(C#Cc4cnc5cccnn45)c3)cc2C(F)(F)F)CC1       TGI     7.02 µM
10  CC1(C)OC(CCO)CN1C(=O)OCc1ccccc1 (configuration not stated)       TGI    > 100 µM
11              CC1(C)CCc2cc3c(cc2O1)OCCC3=O       TGI    > 100 µM
12  CCCCCC(=O)Oc1ccc(/C(=C(\C)c2ccc(OC)cc2)c2ccc(OCCN3CCCCC3)cc2)cc1       TGI     31.8 µM
13  COC(=O)C(CCCCNC(=O)CNC(=O)OCc1ccccc1)NC(=O)C(CCCCNC(=O)CNC(=O)OCc1ccccc1)NC(=O)OCc1ccccc1 (configuration not stated)       TGI    > 100 µM
14  CCCCCC(C(O)C#N)C(O)(C(F)(F)F)C(F)(F)F (configuration not stated)       TGI     > 10 µM
15             CCOC(=O)c1csc(NC(=O)CCCC#N)n1       TGI    > 100 µM
16  CC(C)(C)c1ccc2c(c1)OCc1n[nH]c(n1)COc1cc(C(C)(C)C)ccc1OCCOCCO2       TGI     8.14 µM
17          CCc1cc(=O)n(/C(C)=C/c2ccccc2)n1C       TGI    > 100 µM
18  COC(=O)C(=O)C(C(=O)C(=O)Nc1cc([N+](=O)[O-])ccc1C#N)c1nc2ccccc2[nH]c1=O (configuration not stated)       TGI    > 100 µM
19  C=C(COC(C)=O)CC(/C=C(\C)CCC=C(C)C)OC(C)=O (configuration not stated)       TGI    > 100 µM
20  NS(=O)(=O)c1ccc(NC(=O)c2cccc3c(=O)c4ccccc4[nH]c23)cc1       TGI    > 100 µM
21                  O=C1NC(=S)S/C1=C/c1ccco1       TGI    > 100 µM

---

# Tested on: OVCAR-4 ovarian
# Assay notes: NCI tumour cell line growth inhibition, 48 h
Endpoint: GI50

Compound	Endpoint	Meas value
C=C1CC(COc2cc(Cl)nc(N)n2)C1	GI50	67800 nM
Cc1ccc(-c2nc(C(Cl)Cl)n3nc(-c4ccccc4)cc3n2)cc1	GI50	680 nM
CC1=Nc2c(ccc3c2C(=O)c2ccccc2C3=O)NC(c2ccncc2)C1 (stereo not drawn)	GI50	> 100000 nM
CCCCCC(=O)Oc1ccc(/C(=C(\C)c2ccc(OC)cc2)c2ccc(OCCN3CCCCC3)cc2)cc1	GI50	4950 nM
Cc1noc(C)c1-c1ccc2[nH]c(=O)n3c2c1OC[C@@H]3c1ccccn1	GI50	1030 nM
COc1cc(/C=C2\CC3C4CC=C5CC(N6CCCC6)CC[C@]5(C)C4CC[C@]3(C)C2OC(C)=O)ccc1OCCN1CCCC1 (stereo partly drawn)	GI50	2410 nM
COCC(=O)OC1CCn2c1nc1c2C(=O)C(C)=C(NC(C)=O)C1=O (stereo not drawn)	GI50	1430 nM
C=C(C)[C@@H]1CC[C@@]2(C(=O)O)CC[C@]3(C)C(CCC4[C@@]5(C)CCC(OS(=O)(=O)c6ccccc6)C(C)(C)C5CC[C@]43C)C12 (stereo partly drawn)	GI50	4490 nM

---

# Test system: 786-0 renal
# Assay notes: NCI tumour cell line growth inhibition, 48 h
Recorded GI50 values for a group of compounds are listed next.

Compound	GI50
CN(C)CCNC(=O)Nc1c(C#N)[n+]([O-])c2cc(Cl)c(Cl)cc2[n+]1[O-]	35.8 µM
NC(N)=N/N=C/c1c(-c2ccccn2)nc2sc(Cl)cn12	8.45 µM
C=C(C)[C@@H]1CC[C@@]2(C(=O)O)CC[C@]3(C)C(CCC4[C@@]5(C)CCC(OS(=O)(=O)c6ccccc6)C(C)(C)C5CC[C@]43C)C12 (stereo not given in full)	4.73 µM
COc1ccc(NC2=C(Br)C(=O)C(C)=C(C)C2=O)cc1	15.7 µM
CN(C)c1nc(-c2cccs2)n2nc(-c3ccc(Cl)cc3)cc2n1	3.93 µM
CCN(CCO)CCNc1ccc(C)c2sc3cc(Cl)ccc3c(=O)c12	1.41 µM
COC(=O)c1c(O)ccc2[nH]c(C)c(C#N)c12	31.6 µM
CNC(=O)c1cc(Oc2ccc(NC(=O)Nc3ccc(Cl)c(OC(F)(F)F)c3)c(F)c2)ccn1	4.65 µM
CCCS(=O)(=O)c1nc(NC2CC2)cc(-c2ccc3c(ccn3C3CC(C)(C)NC(C)(C)C3)c2)n1	1.21 µM
CCN(Cc1c(F)cccc1F)c1ccc(CO)c(Cl)c1	15.3 µM

---

# Tested on: SK-MEL-2 melanoma
# Assay notes: NCI tumour cell line growth inhibition, 48 h; in the data active = GI50 below about 0.43 µM; inactive = the rest
Classes used: active, inactive

Molecule	Group
Oc1ccc(Cc2ccccc2)c2cccnc12	inactive
CN(C)c1nc(-c2cccs2)n2nc(-c3ccc(Cl)cc3)cc2n1	inactive
Cc1sc(C)c(-c2ccc(CO)o2)c1-c1ccc(CO)o1	inactive
CCCNCc1cc(C)cc2c1nc(N1CCNCC1)n2Cc1cc(C)c(F)c(C)c1	inactive
CS(=O)(=O)Nc1ccc(-c2ccc3c(NC(=O)C4CC4)n[nH]c3c2)cc1	inactive
COc1ccc2c(c1)C=CC(C#N)N2C(=O)c1ccccc1 (centres undefined)	active
COC(=O)NC/C=C\c1nc(CC/C=C\C(=O)OC2CC3CC(=O)O[C@@H](/C=C/CC(C)C)C[C@@H]4CCC(C)C(C[C@@H](OC)CC(C2)O3)O4)co1 (some centres undefined)	inactive
CC1=C(C)C(=O)O[C@@H]([C@](C)(O)[C@]2(O)CC[C@@]3(O)[C@@H]4C[C@H]5O[C@]56CC=CC(=O)[C@]6(C)[C@H]4CC[C@]23C)C1	active
CCCSc1cc(Cl)nc(N)n1	inactive

---

# Test system: SN12C renal
# Assay notes: NCI tumour cell line growth inhibition, 48 h
Endpoint: TGI

>>> df
                                   compound  meas_value
0  CC(O)CN1C(=O)NC(Cc2ccccc2)C1=O (centres undefined)    > 100 µM
1  COc1cc(CCCOC2OC(COC3OCC(O)C(O)C3O)C(O)C(O)C2O)cc2cc(-c3ccc4c(c3)OCO4)oc12 (centres undefined)     99.5 µM
2        COC(=O)c1c(O)ccc2[nH]c(C)c(C#N)c12    > 100 µM
3  Clc1ccc(OCc2nnc3n2N=C(c2ccc(Cl)cc2Cl)CS3)c(Cl)c1     32.3 µM

Data origin, for the record: PubChem BioAssay (NCI)
